The origin of these recorded values is ChEMBL document CHEMBL1135321.

target: 5-hydroxytryptamine receptor 1B (Rattus norvegicus); assay: Ability to displace the radioligand [125I](-)-iodocyanopindolol from rat striatal 5-HT1B receptor
Sequence (P28564 whole entry): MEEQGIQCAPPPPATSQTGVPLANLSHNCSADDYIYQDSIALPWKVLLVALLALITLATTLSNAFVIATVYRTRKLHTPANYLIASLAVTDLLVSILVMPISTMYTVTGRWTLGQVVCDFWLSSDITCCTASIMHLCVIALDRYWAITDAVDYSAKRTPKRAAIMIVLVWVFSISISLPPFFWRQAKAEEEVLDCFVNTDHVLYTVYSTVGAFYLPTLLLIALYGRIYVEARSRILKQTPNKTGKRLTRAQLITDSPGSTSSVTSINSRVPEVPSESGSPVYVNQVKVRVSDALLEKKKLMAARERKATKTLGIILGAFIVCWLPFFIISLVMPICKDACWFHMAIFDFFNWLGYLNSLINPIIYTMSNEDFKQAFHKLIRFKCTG
pKi: −log10 of the molar value.
ASSAY METRIC: pKi

Would you kindly share the measured pKi for CN1C(=O)C2(CCCCN3CCc4sccc4C3)CCCc3cccc1c32 (stereo unspecified) ?
< 6.00

----------
target: Serotonin 2 (5-HT2) receptor (Rattus norvegicus, UniProt P30994+P08909+P14842); experiment: Ability to displace the radioligand [3H]ketanserin from 5-hydroxytryptamine 2 receptor of rat cerebral cortex membrane; type: tissue-based
Recorded measurements of Log Ki, one per entry

Take a look at these entries with their results.
[[record]]
molecule = "O=C1Nc2cccc3c2C1(CCCCN1CCc2n[nH]cc2C1)CCC3 (stereo not drawn)"
tgt = "Serotonin 2 (5-HT2) receptor (Rattus norvegicus, UniProt P30994+P08909+P14842)"
test_result = "< -6"

[[record]]
molecule = "O=C1Nc2cccc3c2C1(CCCCN1CCc2occc2C1)CCC3 (stereo not drawn)"
tgt = "Serotonin 2 (5-HT2) receptor (Rattus norvegicus, UniProt P30994+P08909+P14842)"
test_result = "< -6"


Would you kindly share the measured Log Ki for O=C1Nc2cccc3c2C1(CCCN1CCc2ccccc2C1)CCC3 (stereo not drawn) ?
-6.31

----------
biological target: 5-hydroxytryptamine receptor 7 (Homo sapiens, UniProt P34969)
Sequence (P34969 whole entry): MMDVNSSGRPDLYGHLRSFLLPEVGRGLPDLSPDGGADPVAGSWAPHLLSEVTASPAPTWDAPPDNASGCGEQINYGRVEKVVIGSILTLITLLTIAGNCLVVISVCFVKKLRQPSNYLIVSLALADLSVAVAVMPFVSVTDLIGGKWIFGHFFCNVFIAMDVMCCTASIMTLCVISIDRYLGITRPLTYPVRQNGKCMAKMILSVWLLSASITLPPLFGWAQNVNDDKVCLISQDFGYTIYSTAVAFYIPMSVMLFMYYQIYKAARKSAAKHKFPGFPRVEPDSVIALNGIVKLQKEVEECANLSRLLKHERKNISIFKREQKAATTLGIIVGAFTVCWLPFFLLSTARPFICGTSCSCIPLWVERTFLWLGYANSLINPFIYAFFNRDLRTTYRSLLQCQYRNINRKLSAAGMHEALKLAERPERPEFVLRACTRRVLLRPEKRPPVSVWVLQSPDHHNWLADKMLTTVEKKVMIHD
ASSAY METRIC: Ki (nM)
Answer format: numeric, nM implied, no suffix.

Take a look at these entries with their results.
[[record]]
compound = "O=C1Nc2cccc3c2C1(CCCCN1CCc2n[nH]cc2C1)CCC3 (stereo not drawn)"
assay_metric = "Ki"
test_result = 813

[[record]]
compound = "O=C1Nc2cccc3c2C1(CCCCCN1CCc2ccccc2C1)CCC3 (stereo not drawn)"
assay_metric = "Ki"
test_result = 12.6


Would you kindly share the measured Ki for O=C1Nc2cccc3c2C1(CCCCN1CCc2occc2C1)CCC3 (stereo not drawn) ?
15.8

----------
Each entry below carries its measured Ki, system: UniProt:P50406.
Sequence (P50406 whole entry): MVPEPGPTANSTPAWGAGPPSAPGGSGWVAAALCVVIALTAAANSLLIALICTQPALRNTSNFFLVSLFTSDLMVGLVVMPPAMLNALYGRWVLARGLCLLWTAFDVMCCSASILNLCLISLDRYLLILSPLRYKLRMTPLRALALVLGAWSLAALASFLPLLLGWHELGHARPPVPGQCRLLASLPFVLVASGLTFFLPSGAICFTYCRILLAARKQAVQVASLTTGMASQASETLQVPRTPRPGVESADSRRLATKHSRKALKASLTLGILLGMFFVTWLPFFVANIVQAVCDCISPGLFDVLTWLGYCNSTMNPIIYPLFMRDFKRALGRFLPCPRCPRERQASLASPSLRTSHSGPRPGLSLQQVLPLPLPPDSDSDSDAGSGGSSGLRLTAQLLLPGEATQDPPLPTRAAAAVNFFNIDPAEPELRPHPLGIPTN

[[record]]
compound = "CN1C(=O)C2(CCCCN3CCc4sccc4C3)CCCc3cccc1c32 (configuration not stated)"
tgt = "UniProt:P50406"
test_result = "> 1 µM"


Kindly review the next compound as well.
Would you kindly share the measured Ki for O=C1Nc2cccc3c2C1(CCCCN1CCc2sccc2C1)CCC3 (configuration not stated) ?
> 1 µM

----------
Target sequence: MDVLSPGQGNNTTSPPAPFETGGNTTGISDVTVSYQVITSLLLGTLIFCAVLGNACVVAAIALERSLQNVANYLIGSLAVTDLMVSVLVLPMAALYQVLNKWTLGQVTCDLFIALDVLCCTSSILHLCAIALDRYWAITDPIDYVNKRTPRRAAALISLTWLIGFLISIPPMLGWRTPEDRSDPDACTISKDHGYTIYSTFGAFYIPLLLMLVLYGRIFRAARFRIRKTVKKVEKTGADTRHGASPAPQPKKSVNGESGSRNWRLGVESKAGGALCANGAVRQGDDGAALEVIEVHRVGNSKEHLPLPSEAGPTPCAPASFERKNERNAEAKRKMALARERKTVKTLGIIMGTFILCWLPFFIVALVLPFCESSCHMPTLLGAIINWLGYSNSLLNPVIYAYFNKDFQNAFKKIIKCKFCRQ
ASSAY METRIC: Ki (µM)
Answer format: numeric, µM implied, no suffix.

Would you kindly share the measured Ki for CN1C(=O)C2(CCCCN3CCc4sccc4C3)CCCc3cccc1c32 (stereo unspecified) ?
0.776
